Tested on: LOX IMVI
Experiment: NCI tumour cell line growth inhibition, 48 h
Activity calls are given as the source filed them. No stated cut-off is given here; in the data, active = GI50 up to about 1.1 µM and inactive = higher.
Recorded GI50 for the following molecules

Q. Query (molecule): "CCn1c2ccccc2c2cc(NC(=O)c3c(C)nc(O)nc3NCCNCCO)ccc21" ; field requested: GI50
A. > 100 µM (inactive)

Q. Which GI50 reading was recorded for the molecule Nc1ccc(C(=O)NN2C(=O)C(Cl)C2c2cc(Br)cc(Br)c2O)cc1 (stereo unspecified) ?
A. 8.85 µM (inactive)

Q. For CCOc1ccc2nc(NC(=O)C(=O)C3C(=O)C(CC4C(=O)c5ccccc5C4=O)C(=O)CC3(C)C)sc2c1 (stereo unspecified) , what is its reported GI50?
A. > 100 µM (inactive)

Q. Look up GI50: C=CCC(O[Si](C)(C)C(C)(C)C)c1cc(O[Si](C)(C)C(C)(C)C)ccc1OC (stereo unspecified)
A. > 94.2 µM (inactive)

Q. Return reported GI50; argument: "O=C(O)CNc1ncc2c(n1)-c1ccccc1OC2"
A. > 100 µM (inactive)

Q. GET /values?readout=GI50&item= CCCCCC(C/C=N/N(C)C)C(O)(C(F)(F)F)C(F)(F)F (stereo unspecified)
A. 43.2 µM (inactive)

* * *

System: HT-29
Test: NCI tumour cell line growth inhibition, 48 h
Calls of active or inactive are those of the source. No stated cut-off is given here; in the data, active = GI50 up to about 1.1 µM and inactive = higher.
property_name: GI50

CC1(CO)OC(n2cc(C(=O)NC(=O)OCc3ccccc3)c(=O)[nH]c2=O)CC1O (stereo not given) ... > 100 µM (inactive)

Q. For the compound "CN(C)CCNC(=O)c1cccc2c1Oc1c(cccc1[N+](=O)[O-])O2" , what GI50 is on record?
A. 1.41 µM (inactive)

Q. Name the recorded GI50 for "CCCCCC(=O)Nc1nc(O)c2[nH]cnc2n1" .
A. > 100 µM (inactive)

Q. // lookup GI50 for CC(c1ccccc1)n1cncc1C(=O)NN1CCN(C)CC1 (stereo not given)
A. > 10 µM (inactive)

Q. Could you share which GI50 value was measured for "CCOC(=O)Cn1c(=O)c2cc(C)cc3c(Cl)nc4c(OC)c(OC)cc1c4c32" ?
A. > 100 µM (inactive)

* * *

Test system: NCI-H522
Assay: NCI tumour cell line growth inhibition, 48 h
Active and inactive are the calls of the source. Cut-off read from the data, not from the text of the source: active = GI50 up to about 1.1 µM and inactive = higher.
Entry note: the call must match one of active, inactive

CN(C)CCNC(=O)c1cccc2c1Oc1c(cccc1[N+](=O)[O-])O2 ... active

Q. Could you kindly confirm the outcome this assay logged for "Cc1cc(C(C)(C)C)c(OCCCN2CCOCC2)c(C(C)(C)C)c1" ?
A. inactive

* * *

Tested on: UACC-257
Test: NCI tumour cell line growth inhibition, 48 h
Active and inactive are the calls of the source. Rule as the data show it: active = GI50 up to about 1.1 µM and inactive = higher.
property_name: GI50

Nc1ccc(C(=O)NN2C(=O)C(Cl)C2c2cc(Br)cc(Br)c2O)cc1 (centres undefined) ... 7.67 µM (inactive)
Cc1cc(S(=O)(=O)Nc2nc(Nc3ccccc3)n[nH]2)c(SSc2cc(Cl)c(C)cc2S(=O)(=O)Nc2nc(Nc3ccccc3)n[nH]2)cc1Cl ... > 100 µM (inactive)
Cc1ccc(S(=O)(=O)N2CCNCCN(S(=O)(=O)c3ccc(C)cc3)CCNCC2)cc1 ... 16.4 µM (inactive)

Q. What value of GI50 on UACC-257 does "COc1ccc(NC(=S)NC(=O)c2ccc3c(c2)Sc2ccccc2O3)c([N+](=O)[O-])c1" have?
A. 33.1 µM (inactive)

Q. Give UACC-257 GI50 for COC(=S)OC1CC(n2cnc3c(N)ncnc32)OC1CO[Si](C)(C)C(C)(C)C (centres undefined)
A. 21.3 µM (inactive)

Q. Under UACC-257: GI50 value of "Nc1nc(O)c2nc3c(nc2n1)C(=O)N(c1ccc(C(=O)O)cc1)C3" ?
A. > 100 µM (inactive)

Q. Tell me reported GI50 for COC(=O)CCC(C)C1CCC2C3CCC4CC5CCC4(C)C3(O5)C(Br)C(Br)C12C (centres undefined) , tested with UACC-257.
A. > 100 µM (inactive)

Q. Query the reported GI50 for UACC-257; item: CC(=O)O[C@H]1C(N(C)C(=O)c2ccccc2)CC[C@]2(C)C3CC[C@@]4(C)C(CC(O)[C@@H]4C(C)N(C)C)[C@@H]3CCC12 (some centres undefined)
A. > 100 µM (inactive)
